- Test system: platelet aggregation
- Procedure details: Platelet aggregation-inhibitory activity in vitro (collagen-induced, rat platelet rich plasma)
- Format: cell-based
- Assay setup: 10^-7 M, read-out: in vitro Inhibitory ratio
Criterion: inhibition at 0.1 µM meeting or surpassing 70%. Met: satisfied. Not met: not satisfied.

Test whether the compound "Cc1cccc(C(C)(C)Nc2nnc(-c3ccccc3)c3ccccc23)c1" records inhibition at 0.1 µM of 70% or higher.
satisfied

And then c1ccc(CCCNc2nnc(-c3ccccc3)c3ccccc23)cc1 [Control 3, reference compound] , what is it?
not satisfied

Continue with COc1cccc(C(C)Nc2nnc(-c3ccccc3)c3ccccc23)c1 (racemic)
not satisfied

Let us now turn to Cc1ccccc1C(C)Nc1nnc(-c2ccccc2)c2ccccc12 (racemic)
satisfied

Input COc1ccc(C(C)Nc2nnc(-c3ccccc3)c3ccccc23)cc1OC (racemic)
not satisfied

Item: "Cc1ccc(C(C)(C)Nc2nnc(-c3ccccc3)c3ccccc23)cc1"
satisfied

Continue with CC(Nc1nnc(-c2ccccc2)c2ccccc12)c1cccc(C(F)(F)F)c1 (racemic)
not satisfied

And CCc1ccc(C(C)Nc2nnc(-c3ccccc3)c3ccccc23)cc1 (racemic) ?
not satisfied

What about this compound? CC(Nc1nnc(-c2ccccc2)c2ccccc12)c1cccc(Cl)c1 (racemic)
not satisfied

Same again, this time with CC(C)C(Nc1nnc(-c2ccccc2)c2ccccc12)c1ccccc1 (racemic)
not satisfied

And for CC(Nc1nnc(-c2ccccc2)c2ccccc12)c1ccccc1 (racemic) ?
satisfied

Please give the result for Cc1cccc(C(C)Nc2nnc(-c3ccccc3)c3ccccc23)c1 (racemic) too.
satisfied

What about COc1ccc(C(C)Nc2nnc(-c3ccccc3)c3ccccc23)cc1 (racemic) ?
not satisfied

# iterate: CC(Nc1nnc(-c2ccccc2)c2ccccc12)c1ccc(Cl)cc1 (racemic)
not satisfied

Entry to check: CC(C)(C)C(Nc1nnc(-c2ccccc2)c2ccccc12)c1ccccc1 (racemic)
satisfied
